- measured on: HIV-1 protease (Human immunodeficiency virus type 1 group M subtype B, UniProt P04585)
- assay overview: biochemical
- experimental context: read-out: HIV-1 Protease % Inhib, dose 30.000 uM
We begin with a simple list: items and their reported inhibition at 30 µM.

compound: O=c1oc2c(c(O)c1C(c1cccc(NS(=O)(=O)c3cc(Cl)c(Cl)s3)c1)C1CC1)CCCCCC2 (centres unmarked)
inhibition at 30 µM: 112%
//
compound: O=c1oc2c(c(O)c1C(c1cccc(NS(=O)(=O)c3cc(Cl)sc3Cl)c1)C1CC1)CCCCCC2 (centres unmarked)
inhibition at 30 µM: 95.6%
//
compound: Cc1c(Cl)cccc1S(=O)(=O)Nc1cccc(C(c2c(O)c3c(oc2=O)CCCCCC3)C2CC2)c1 (centres unmarked)
inhibition at 30 µM: 99.5%
//
compound: O=c1oc2c(c(O)c1C(c1cccc(NS(=O)(=O)c3cc(Cl)cc(Cl)c3O)c1)C1CC1)CCCCCC2 (centres unmarked)
inhibition at 30 µM: 104%
//
compound: CCOC(=O)Nc1cccc(C(c2c(O)c3c(oc2=O)CCCCCC3)C2CC2)c1 (centres unmarked)
inhibition at 30 µM: 104%
//
compound: CCCC1CCCCCc2c1oc(=O)c(C(c1ccccc1)C1CC1)c2O (centres unmarked)
inhibition at 30 µM: 102%
//
compound: COCCOCCOCCOc1ccc(S(=O)(=O)Nc2cccc(C(c3c(O)c4c(oc3=O)CCCCCC4)C3CC3)c2)cc1 (centres unmarked)
inhibition at 30 µM: 120%
//
compound: CCC(O)C1CCCCCc2c1oc(=O)c(C(c1ccccc1)C1CC1)c2O (centres unmarked)
inhibition at 30 µM: 109%

====

Recorded inhibition at 10 µM for the following compounds
- measured on: UniProt:P04585
- assay overview: biochemical
- experimental context: read-out: HIV-1 Protease % Inhib, dose 10.000 uM

compound: CN(C)S(=O)(=O)Nc1cccc(C(c2c(O)c3c(oc2=O)CCCCCC3)C2CC2)c1 (centres unmarked)
qualifier: =
inhibition at 10 µM [%]: 105
//
compound: CCC(c1cccc(NC(=O)Cc2ccccc2)c1)c1c(O)c2ccccc2oc1=O (centres unmarked)
qualifier: <
inhibition at 10 µM [%]: 10
//
compound: CCC(c1ccccc1)c1c(O)c2ccc(OC(C)C)cc2oc1=O (centres unmarked)
qualifier: =
inhibition at 10 µM [%]: 75.6
//
compound: CCC(O)C1CCCCCc2c1oc(=O)c(C(c1ccccc1)C1CC1)c2O (centres unmarked)
qualifier: =
inhibition at 10 µM [%]: 111
//
compound: Cc1noc(C)c1S(=O)(=O)Nc1cccc(C(c2c(O)c3c(oc2=O)CCCCCC3)C2CC2)c1 (centres unmarked)
qualifier: =
inhibition at 10 µM [%]: 102
//
compound: O=c1oc2c(c(O)c1C(c1cccc(NS(=O)(=O)c3cc(Cl)c(Cl)s3)c1)C1CC1)CCCCCC2 (centres unmarked)
qualifier: =
inhibition at 10 µM [%]: 115
//
compound: CCCC(c1cccc(N)c1)c1c(O)c2c(oc1=O)CCCCCC2 (centres unmarked)
qualifier: =
inhibition at 10 µM [%]: 102
//
compound: O=c1oc2c(c(O)c1C(c1ccccc1)C1CC1)CCCCC2Cc1ccccc1 (centres unmarked)
qualifier: =
inhibition at 10 µM [%]: 99.2
//
compound: Cc1sc(C(c2c(O)c3c(oc2=O)CCCCCC3)C2CC2)cc1CO (centres unmarked)
qualifier: =
inhibition at 10 µM [%]: 120
//
compound: O=c1oc2c(c(O)c1C(c1cccc(NS(=O)(=O)c3ccc(Cl)cc3Cl)c1)C1CC1)CCCCCC2 (centres unmarked)
qualifier: =
inhibition at 10 µM [%]: 99.8
//
compound: O=c1oc2c(c(O)c1C(c1ccc(CO)s1)C1CC1)CCCCCC2 (centres unmarked)
qualifier: =
inhibition at 10 µM [%]: 103
//
compound: CC(=O)Nc1ccc(S(=O)(=O)Nc2cccc(C(c3c(O)c4c(oc3=O)CCCCCC4)C3CC3)c2)cc1 (centres unmarked)
qualifier: =
inhibition at 10 µM [%]: 105
//
compound: O=c1oc2c(c(O)c1C(c1cccc(NS(=O)(=O)c3ccccc3)c1)C1CC1)CCCCCC2 (centres unmarked)
qualifier: =
inhibition at 10 µM [%]: 102
//
compound: CC(c1cccc(C(=O)NCc2nc3ccccc3[nH]2)c1)c1c(O)c2ccccc2oc1=O (centres unmarked)
qualifier: =
inhibition at 10 µM [%]: 53.6
//
compound: O=c1oc2c(c(O)c1C(c1cccc(NS(=O)(=O)c3ccc(Cl)c(Cl)c3)c1)C1CC1)CCCCCC2 (centres unmarked)
qualifier: =
inhibition at 10 µM [%]: 125
//
compound: O=c1oc2ccccc2c(O)c1C(C1CC1)C1CC1
qualifier: =
inhibition at 10 µM [%]: 68.7
//
compound: Cc1nn(C)c(Cl)c1S(=O)(=O)Nc1cccc(C(c2c(O)c3c(oc2=O)CCCCCC3)C2CC2)c1 (centres unmarked)
qualifier: =
inhibition at 10 µM [%]: 94.7

====

- measured on: UniProt P04585
- assay overview: biochemical
- experimental context: read-out: HIV-1 Protease % Inhib, dose 0.370 uM
readout type: inhibition at 0.37 µM (%)

compound: CCCc1ccc(S(=O)(=O)Nc2cccc(C(c3c(O)c4c(oc3=O)CCCCCC4)C3CC3)c2)cc1 (stereo not shown) [Example 342]
readout type: inhibition at 0.37 µM
assay result: 72.9
//
compound: Nc1cccc(S(=O)(=O)Nc2cccc(C(c3c(O)c4c(oc3=O)CCCCCC4)C3CC3)c2)c1 (stereo not shown) [Example 353 (First Title Compound)]
readout type: inhibition at 0.37 µM
assay result: 83.1
//
compound: O=C(CO)Nc1cccc(S(=O)(=O)Nc2cccc(C(c3c(O)c4c(oc3=O)CCCCCC4)C3CC3)c2)c1 (stereo not shown) [Example 409]
readout type: inhibition at 0.37 µM
assay result: 90.5
//
compound: O=c1oc2c(c(O)c1C(c1cccc(S(=O)(=O)Nc3ccccc3)c1)C1CC1)CCCCCC2 (stereo not shown) [Example 400]
readout type: inhibition at 0.37 µM
assay result: 54.8

====

Items are presented alongside their recorded inhibition at 10 µM.
- measured on: HIV-1 protease (Human immunodeficiency virus type 1 group M subtype B)
- assay overview: biochemical
- experimental context: dose 10.000 uM; read-out: HIV-1 Protease % Inhib

compound: Cc1cc(C)c(S(=O)(=O)Nc2cccc(C(c3c(O)c4c(oc3=O)CCCCCC4)C3CC3)c2)c(C)c1 (centres unmarked) [Example 277]
inhibition at 10 µM (%): 79.9
//
compound: CCC(c1cccc(N)c1)c1c(O)c2c(oc1=O)CCCCCC2 (centres unmarked) [Example 218]
inhibition at 10 µM (%): 88
//
compound: O=c1oc2c(c(O)c1C(c1ccccc1)C1CC1)CCCCC2CCC1OCCO1 (centres unmarked) [Example 186]
inhibition at 10 µM (%): 88.7
//
compound: CC(C)(O)C1CCCCCc2c1oc(=O)c(C(c1ccccc1)C1CC1)c2O (centres unmarked) [Example 175]
inhibition at 10 µM (%): 88.5
//
compound: CCCCCCCCCCCCS(=O)(=O)Nc1cccc(C(c2c(O)c3c(oc2=O)CCCCCC3)C2CC2)c1 (centres unmarked) [Example 344]
inhibition at 10 µM (%): 63.2
//
compound: O=c1oc2c(c(O)c1C(c1cccc(NC(=S)Cc3ccccc3)c1)C1CC1)CCCCCC2 (centres unmarked) [Example 368]
inhibition at 10 µM (%): 77.8
//
compound: CS(=O)(=O)N(Cc1ccccc1)c1cccc(C(c2c(O)c3c(oc2=O)CCCCCC3)C2CC2)c1 (centres unmarked) [Example 245]
inhibition at 10 µM (%): 59.5
//
compound: CC(C)(C)OC(=O)NCc1ccc(C(c2c(O)c3c(oc2=O)CCCCCC3)C2CC2)o1 (centres unmarked) [Example 480]
inhibition at 10 µM (%): 45.5

====

- measured on: UniProt P04585
- assay overview: biochemical
- experimental context: read-out: HIV-1 Protease % Inhib, dose 10.000 uM
The following compounds are listed with their measured inhibition at 10 µM values.

compound: CCC(c1cccc(Br)c1)c1c(O)c2ccccc2oc1=O (stereo not shown)
qualifier: =
inhibition at 10 µM / %: 15
--
compound: CC(c1cccc(C(=O)NCC(=O)N2CCOCC2)c1)c1c(O)c2ccccc2oc1=O (stereo not shown)
qualifier: <
inhibition at 10 µM / %: 10
--
compound: C=CS(=O)(=O)Nc1cccc(C(c2c(O)c3c(oc2=O)CCCCCC3)C2CC2)c1 (stereo not shown)
qualifier: =
inhibition at 10 µM / %: 103
--
compound: O=c1oc2c(c(O)c1C(c1cccc(NS(=O)(=O)c3ccc(O)cc3)c1)C1CC1)CCCCCC2 (stereo not shown)
qualifier: =
inhibition at 10 µM / %: 107
--
compound: CCC(CC(=O)Nc1cccc(C(CC)c2c(O)c3ccccc3oc2=O)c1)c1ccccc1 (stereo not shown)
qualifier: =
inhibition at 10 µM / %: 21.9
--
compound: O=c1oc2c(c(O)c1C(c1cccs1)C1CC1)CCCCCC2 (stereo not shown)
qualifier: =
inhibition at 10 µM / %: 107
--
compound: O=c1oc2c(c(O)c1C(c1cccc(NS(=O)(=O)c3cccc(Cl)c3)c1)C1CC1)CCCCCC2 (stereo not shown)
qualifier: =
inhibition at 10 µM / %: 95.3
--
compound: O=c1oc2c(c(O)c1C(c1cccc(NS(=O)(=O)c3ccc(-c4ccon4)s3)c1)C1CC1)CCCCCC2 (stereo not shown)
qualifier: =
inhibition at 10 µM / %: 102
--
compound: O=c1oc2c(c(O)c1C(c1cccc(NS(=O)(=O)c3ccc(Cl)s3)c1)C1CC1)CCCCCC2 (stereo not shown)
qualifier: =
inhibition at 10 µM / %: 104
--
compound: CCC(c1cccc(NC(=O)CCN)c1)c1c(O)c2ccccc2oc1=O (stereo not shown)
qualifier: =
inhibition at 10 µM / %: 24.2
--
compound: O=C(O)c1cccc(S(=O)(=O)Nc2cccc(C(c3c(O)c4c(oc3=O)CCCCCC4)C3CC3)c2)c1 (stereo not shown)
qualifier: =
inhibition at 10 µM / %: 115
--
compound: CCC1CCCCCc2c1oc(=O)c(C(c1ccccc1)C1CC1)c2O (stereo not shown)
qualifier: =
inhibition at 10 µM / %: 117
--
compound: O=C(NCc1ccc(C(c2c(O)c3c(oc2=O)CCCCCC3)C2CC2)o1)OCc1ccccc1 (stereo not shown)
qualifier: =
inhibition at 10 µM / %: 98.2
--
compound: O=c1oc2ccccc2c(O)c1C1CCc2ccccc21 (stereo not shown) [Example 35, 4-hydroxy-3-[1-indanyl]-coumarin]
qualifier: =
inhibition at 10 µM / %: 19.6
--
compound: CCC(c1cccc(NC(=O)C(NC(=O)OC(C)(C)C)C(C)C)c1)c1c(O)c2ccccc2oc1=O (stereo not shown)
qualifier: =
inhibition at 10 µM / %: 75.2
--
compound: O=c1oc2c(c(O)c1C(c1cccc(NS(=O)(=O)c3cccc(N4CCCS4(=O)=O)c3)c1)C1CC1)CCCCCC2 (stereo not shown)
qualifier: =
inhibition at 10 µM / %: 96.8
